meta.source: paper PMC9482650

Target: T1, LIN7B, Q9HAP6
T1 sequence (Q9HAP6 88-185, limits assumed, looked up): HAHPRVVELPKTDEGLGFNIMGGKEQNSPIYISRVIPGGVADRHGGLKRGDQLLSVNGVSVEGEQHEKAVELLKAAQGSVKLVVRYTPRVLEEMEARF
Experiment: holdup assay
Design: key: below the threshold = too weak to quantify, mostly under pKd 3.1 to 4
Details: plain residues with an end cap or a label only (N-terminal biotin on a linker: ttds)
Measured Metric: pKd

1. RTRQRNETQV [HPV51-E6, P26554]    below the threshold
2. LDSQIQETSI [MAP4, P27816]    below the threshold
3. DPLTPSRSQL [DGKK, Q5KSL6]    below the threshold
4. QFQYAKESYI [TAGAP, Q8N103]    below the threshold
5. GGPKEEESPV [SLC16A1, P53985]    below the threshold
6. SEKHFRETEV [HTLV1-TAX1, P03409]    3.83
7. LCALPKVTTV [AGMAT, Q9BSE5]    3.94
8. VNKVWDQSSV [CIT, O14578]    below the threshold
9. DPRNTQTSQI [ABRAXAS2, Q15018]    below the threshold
10. PKRPFVESNV [TANC2, Q9HCD6]    below the threshold
